Hey, just so you know, these numbers are from patent US20170369542A1.

# Lookup of reported Kd keyed by entry
# TARGET UNDER TEST: T1, C-terminal biotinylated human Hepcidin-25 (human, not fully specified; biotinylated via a Lysine residue coupled to the C-terminus via a Mini-PEG linker)
# T1 construct: Bought from Bachem AG; Captured on plates via Neutravidin; also called C-terminal biotinylated hepcidin; C-terminal biotinylated hHepcidin
# T1 peptide: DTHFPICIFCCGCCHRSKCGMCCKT
# ASSAY NOTES: direct ELISA, biotinylated hepcidin captured via Neutravidin, mutein titrated
VALUE TYPE: Kd (nM)

1. lipocalin mutein of SEQ ID NO: 5 (designed binder, also called Lcn2 mutein) QDSTSDLIPAPPLSKVPLQQNFQDNQFHGKWYVVGAAGNSLLREDKDPMKMWATIYELKEDKSYNVTRVNFGGKKCSYLIETFVPGSQPGEFTLGSIKSRPGATSVLVRVVSTNYNQHAMVFFKLVTQNREVFWITLYGRTKELTSELKENFIRFSKSLGLPENHIVFPVPIDQCIDG; 4.13
2. lipocalin mutein of SEQ ID NO: 10 (designed binder, also called Lcn2 mutein) QDSTSDLIPAPPLSKVPLQQNFQDNQFHGKWYVVGLAGNEILREDKDPMKMWATIYELKEDRSYNVTIVMFLAKKCEYLFQTFVPGSQPGEFTLGDIKSSPGRTSGLVRVVSTNYNQHAMVFFKVVWQNREVFWITLYGRTKELTPELKENFIRFSKSLGLPENHIVFPVPIDQCIDGF; 0.75
3. lipocalin mutein of SEQ ID NO: 6 (designed binder, also called Lcn2 mutein) QDSTSDLIPAPPLSKVPLQQNFQDNQFHGKWYVVGLAGNEILREDKDPLKMWATIYELKEDKSYNVTRVQFGEKKCGYGIETFVPGSQPGEFTLGSIKSVPGGTSRLVRVVSTNYNQHAMVFFKFVWQNREVFWITLYGRTKELTSELKENFIRFSKSLGLPENHIVFPVPIDQCIDG; 0.76
